Tested on: SK-MEL-28 melanoma
protocol_description: NCI tumour cell line growth inhibition, 48 h
endpoint_name: TGI (µM)
Numbers only, in µM.

compound: CCO/C=N/C1=C(C#N)C(c2ccc(OC)c(OC)c2)c2c(-c3ccccc3)nn(-c3ccccc3)c2O1 (centres undefined)
system_tested: SK-MEL-28 melanoma
result_units: µM
measured: 29.4
//
compound: O=C1c2ccccc2C(=O)c2c1c1cc(O)ccc1n2Cc1ccc(Cl)cc1Cl
system_tested: SK-MEL-28 melanoma
result_units: µM
measured: 36.1
//
compound: OB1OCc2ccccc21
system_tested: SK-MEL-28 melanoma
result_units: µM
measured: 63
//
compound: Clc1ccc(CCN2CCN(CCCc3ccccc3)CC2)cc1Cl
system_tested: SK-MEL-28 melanoma
result_units: µM
measured: 37.5
//
compound: COc1cc2c(cc1C)NC(=O)/C2=C/c1c(Cl)n(C)c2ccccc12
system_tested: SK-MEL-28 melanoma
result_units: µM
measured: 62.6

Give TGI for each of the items listed below.
1. CC1CCCC2(O1)OC1CC(=O)OC1C1=C2C(=O)c2ccccc2C1=O (centres undefined)
2. O=C(O)CCCCCNC(=O)CCC(CN(CC(=O)OCc1ccccc1)CC(=O)OCc1ccccc1)N(CC(=O)OCc1ccccc1)CC(=O)OCc1ccccc1 (centres undefined)

[4.75, 33.7]

* * *

Tested on: OVCAR-8 ovarian
protocol_description: NCI tumour cell line growth inhibition, 48 h; in the data active = GI50 below about 0.43 µM; inactive = the rest
Please answer using one outcome listed in active, inactive

Example entries begin here.
molecule: COc1c(C)cnc(Cn2cnc3c(Cl)nc(N)nc32)c1C
class_assignment: active

molecule: CN(C)CCCn1c2c(c3ccc([N+](=O)[O-])cc3c1=O)C(=O)c1ccccc1-2
class_assignment: inactive

molecule: Cn1cc(C2=C(c3cn(CCCSC(=N)N)c4ccccc34)C(=O)NC2=O)c2ccccc21
class_assignment: inactive

molecule: Cc1nn(-c2ccccc2)c2ncc3c(c12)C(=O)N(Cc1ccccc1)C3=O
class_assignment: inactive

Lab note: next molecule to report on.
Just curious, what result did CCCCCCn1c(=N)n(CC(O)COc2cccc(C)c2)c2ccccc21 (stereo not given) get here?
inactive

* * *

Test system: MOLT-4 leukemia
protocol_description: NCI tumour cell line growth inhibition, 48 h; in the data active means GI50 below about 0.43 µM; inactive means the rest
Please answer using one outcome listed in Y (active), N (inactive)

Just curious, what result did "Nc1cc(N)c2nc(-c3ccccc3)c(Sc3ccc(F)cc3)nc2c1" get here?
N

Note, next up: "C=CC(=O)N1CC[C@@H](Oc2nc(Nc3ccc(N4CCC(N5CCN(C)CC5)CC4)cc3)c(C(N)=O)nc2CC)C1"
N

Note, next up: "O=C(/C=C\c1ccc(Cl)c(Cl)c1)c1ccccc1"
N

Note, next up: "CN1CCN(Cc2ccc(NC(=O)c3cncc(C#Cc4c(N)ncc5ccc(F)cc45)c3)cc2C(F)(F)F)CC1"
Y

Note, next up: "Oc1c(Br)cc(Br)c2cccnc12"
N

Note, next up: C[As](C)SCC(COC(=O)c1ccccc1)OC(=O)c1ccccc1 (stereo unspecified)
Y

* * *

System: K-562 leukemia
protocol_description: NCI tumour cell line growth inhibition, 48 h
Give GI50 for every item shown.

Sample records with GI50:
compound: CNCc1ccc(C)c(NC(=O)c2ccc(Nc3nc(-c4ccccc4)c4ccccc4n3)cc2)c1
GI50: 1910 nM

compound: COc1ccc(/C(C)=C(\c2ccc(Cl)cc2)c2ccc(OCCN3CCCCC3)cc2)cc1F
GI50: 698 nM

compound: CCS(=O)(=O)Nc1ccc(Oc2ccc(F)cc2F)c(-c2cn(C)c(=O)c3[nH]ccc23)c1
GI50: 32.2 nM

compound: CCN(CC)CCCC(C)NC(=S)N/N=C(\C)c1ccccn1 (stereo not given)
GI50: 3080 nM

Quick one: GI50 of "COc1ccc(/C=C2\CN(Cc3cn(CCCNc4ccnc5cc(Cl)ccc45)nn3)C/C(=C\c3ccc(OC)cc3)C2=O)cc1" ?
2650 nM

* * *

Tested on: U251 CNS
protocol_description: NCI tumour cell line growth inhibition, 48 h
endpoint_name: log10 of TGI (log10 of the value in µM)
Scale: decimal log of TGI, TGI in µM.

Sample records with log10 of TGI:
compound: CCCCCCCCCCCCOC1C(C(COC2OC(C(O)CO)C3OC(C)(C)OC23)OC(=O)Nc2ccc([N+](=O)[O-])cc2)OC2OC(C)(C)OC21 (stereo not given)
endpoint_name: log10 of TGI
measured: 0.56
//
compound: COC(=O)C(I(OS(=O)(=O)c1ccc(C)cc1)c1ccccc1)=P(c1ccccc1)(c1ccccc1)c1ccccc1
endpoint_name: log10 of TGI
measured: 1.61
//
compound: Cc1ccc(CCNC(=S)SCC(NC(=O)CCC(N)C(=O)O)C(=O)NCC(=O)O)cc1 (stereo not given)
endpoint_name: log10 of TGI
measured: 0.61
//
compound: COc1cc(C=Nc2ccc(Oc3ccc(Cl)cc3)c(Cl)c2)cc(OC)c1OC
endpoint_name: log10 of TGI
measured: 1.61

Consider the record given below.
Quick one: log10 of TGI of "O=c1[nH]c2cccccc-2c1-c1nc2ccccc2[nH]1" ?
1.83

* * *

Tested on: HOP-92 NSCLC
protocol_description: NCI tumour cell line growth inhibition, 48 h; in the data active = GI50 below about 0.43 µM; inactive = the rest
Please answer using one outcome listed in y (active), n (inactive)

compound: Cc1cc2c(C#N)n3c(c2cc1C)C(=O)C(c1ccccc1)Oc1ccccc1-3 (stereo not given)
system_tested: HOP-92 NSCLC
class_assignment: n
//
compound: COc1ccc(C(=O)CC(Cl)=C(Cl)Cl)cc1
system_tested: HOP-92 NSCLC
class_assignment: n
//
compound: O=C(/C=C/CN1CCCCC1)Nc1cc2c(Nc3ccc(F)c(Cl)c3F)ncnc2cc1OCCOC(F)F
system_tested: HOP-92 NSCLC
class_assignment: y
//
compound: Cn1cc(C2=C(c3cn(CCCSC(=N)N)c4ccccc34)C(=O)NC2=O)c2ccccc21
system_tested: HOP-92 NSCLC
class_assignment: n

Lab note: next compound to report on.
Just curious, what result did "COc1ccc(N2CCN(CC(=O)N3CCN(c4nnc(-c5ccc(Cl)cc5)c(-c5ccc(Cl)cc5)n4)CC3)CC2)cc1" get here?
n

* * *

Tested on: BT-549 breast
protocol_description: NCI tumour cell line growth inhibition, 48 h; in the data active means GI50 below about 0.43 µM; inactive means the rest
Please answer using one outcome listed in active, inactive

Example entries begin here.
compound: N#Cc1c(-c2ccc(Cl)cc2)n([O-])c2ccccc2[n+]1=O
class_assignment: inactive
//
compound: COc1c(C)cnc(Cn2cnc3c(Cl)nc(N)nc32)c1C
class_assignment: inactive
//
compound: Cc1ccc(S(=O)(=O)NC(CCCCN)C(=O)CCl)cc1 (centres undefined)
class_assignment: inactive
//
compound: COc1cccc2c1C(=N)c1c(O)c3c(c(O)c1C2=O)C[C@@](O)(C(C)=O)C[C@@H]3OC1CC(N)C(O)C(C)O1 (some centres undefined)
class_assignment: inactive
//
compound: CC1SC(c2cccc(Oc3ccccc3)c2)N(CCc2cccs2)C1=O (centres undefined)
class_assignment: inactive

Just curious, what result did "Oc1ccc(-c2nc(-c3ccc4oc5ccc(-c6[nH]c(-c7ccc(O)cc7)nc6-c6ccccc6)cc5c4c3)c(-c3ccccc3)[nH]2)cc1" get here?
inactive

Note, next up: "Cn1cnc2nc(Cl)nc(Cl)c21"
inactive

Note, next up: COc1ccc2c(c1)CCC1C2CCC2(C)C1CC[C@@]2(O)CNC(=O)/C=C/c1ccc(O)c(O)c1 (some centres undefined)
inactive

Note, next up: CC(=O)OC1C(OC/C2=C/C3[C@@H](C(C)C)CC=C(C)[C@@H]3CC(OC(=O)/C=C/c3cn(C)cn3)[C@]3(C)C=C[C@@]2(O)O3)OCC(O)C1O (some centres undefined)
active

* * *

Tested on: M14 melanoma
protocol_description: NCI tumour cell line growth inhibition, 48 h
Give TGI for every item shown.
Answers are plain numbers, in µM.

Sample records with TGI:
compound: N#CC1=C(N)Oc2c(ccc3ccccc23)C1c1ccccc1Cl (stereo not given)
measured: 3.39

compound: COCN1C(=O)[C@@H]2C[C@@H](OC/C=C/CBr)CN2C(=O)c2ccccc21
measured: 42.9

compound: CCN(CC)CCC(CNc1c2ccc(Cl)cc2nc2ccc(OC)cc12)c1ccccc1 (stereo not given)
measured: 3.44

compound: Cc1cc(N2CCOCC2)nc(N(CCNc2ccnc3cc(Cl)ccc23)Cc2cccs2)n1
measured: 3.41

Consider the record given below.
Quick one: TGI of "CCS(=O)(=O)Nc1ccc(Oc2ccc(F)cc2F)c(-c2cn(C)c(=O)c3[nH]ccc23)c1" ?
17

* * *

Give TGI for every item shown.
Tested on: MDA-MB-231 breast
protocol_description: NCI tumour cell line growth inhibition, 48 h

Sample records with TGI:
molecule: Nc1nc(N)c2nn(-c3ccc(C(=O)O)cc3)nc2n1
system_tested: MDA-MB-231 breast
endpoint_name: TGI
measured: > 100 µM
--
molecule: COC(=O)C(I(OS(=O)(=O)c1ccc(C)cc1)c1ccccc1)=P(c1ccccc1)(c1ccccc1)c1ccccc1
system_tested: MDA-MB-231 breast
endpoint_name: TGI
measured: 75.6 µM
--
molecule: Cc1ccc(-c2cn3c(nc4ccccc43)c(C)n2)cc1
system_tested: MDA-MB-231 breast
endpoint_name: TGI
measured: > 100 µM
--
molecule: O=C1CSC(c2ccc(Cl)cc2)N1c1ccc(-n2c(-c3ccccc3)nc3ccccc3c2=O)cc1 (stereo not drawn)
system_tested: MDA-MB-231 breast
endpoint_name: TGI
measured: > 100 µM
--
molecule: Cc1[nH]c(=O)nc2c1C(=O)N(C(C)C)C(NC(C)C)S2 (stereo not drawn)
system_tested: MDA-MB-231 breast
endpoint_name: TGI
measured: > 100 µM

Give TGI for each of the items listed below.
1. COc1ccc(C(=O)CC(Cl)=C(Cl)Cl)cc1
2. CC(C)(O)C1CC(=O)C(C)(C2C(O)CC3(C)C4CC=C5C(CCC(O)C5(C)C)C4(C)C(=O)CC23C)O1 (stereo not drawn)
3. O=C1/C(=C/c2ccc([N+](=O)[O-])s2)Oc2ccc(Cl)cc21
4. O=C1NC(N2CCCC(CO)C2)=N/C1=C\c1ccc(O)cc1 (stereo not drawn)
5. CC(C)(C)OC(=O)N1CC(COS(C)(=O)=O)c2ccc(O)cc21 (stereo not drawn)

> 100 µM
> 100 µM
0.586 µM
> 100 µM
8.41 µM

Give TGI for each of the items listed below.
1. CCN(CC)CCCC(C)NC(=S)N/N=C(\C)c1ccccn1 (stereo not drawn)
2. Cc1ccc(S(=O)(=O)NC(CCCCN)C(=O)CCl)cc1 (stereo not drawn)
3. Nc1c2ccccc2nc2ccc(C(=O)Nc3ccc(S(N)(=O)=O)cc3)cc12

["> 100 µM", "> 100 µM", "> 100 µM"]
